- Test system: BT-549 breast
- test: NCI tumour cell line growth inhibition, 48 h; in the data active = GI50 below about 0.43 µM; inactive = the rest
Respond with a class label; see 1.0 (active), 0.0 (inactive)

Hi, do you know how COC(=O)C1CCc2sc3ncnc(Nc4cn[nH]c4C(=O)Nc4ccc(CN5CCN(C)CC5)cc4)c3c21 (centres undefined) came out in this test?
0.0

Hi, do you know how `COc1ccc2cc(-c3c(-c4ccncc4)nc(-c4ccc(S(C)(=O)=O)cc4C)n3C)ccc2c1` came out in this test?
0.0

Hi, do you know how `Cc1[nH]nc(C(=O)n2nc(N)c3ccccc32)c1[N+](=O)[O-]` came out in this test?
0.0

Hi, do you know how `CCCOc1ccc2nc(NC(=O)OC)[nH]c2c1` came out in this test?
0.0

Hi, do you know how `Cc1ccc2nc(-c3ccc(N(C)C)c(Br)c3)cn2c1` came out in this test?
0.0

Hi, do you know how `COc1cc(-c2n/c(=C\c3c(O)[nH]c4ccc(Cl)cc34)cc3c2=Nc2ccccc2-3)ccc1F` came out in this test?
0.0

Hi, do you know how `CCOC(=O)/C=C/C1=C(c2cccs2)c2ccccc2CC1` came out in this test?
0.0

Hi, do you know how `COc1cc(C(=O)Nc2cc3c(cc2Oc2cc(C)cc(C)c2)C(=O)N(C)[C@@H](CC(=O)N(C)O)C(=O)N3)c(Br)c(OC)c1OC` came out in this test?
1.0

Hi, do you know how `Cc1cc2c(cc1C)N(C(=O)CCl)CCN2C(=O)CCl` came out in this test?
0.0
